Reported microsomal CLint values are given for each entry in this list.
# test: Metabolic stability in rat liver microsomes (RLMs)
# experimental-setup: rat, microsomes, RLM CL, R2, RLM CL, replicate R2, summary block
measured-parameter: microsomal CLint

{"columns": ["compound", "measured-parameter", "reported-value"],
 "data": [
  ["O=C1CSCCC[C@H](NC(=O)c2ccc(Cl)s2)C(=O)N[C@@H](Cc2ccccc2)C(=O)N2CCC[C@@H]2CC(=O)NCCSC1 [compound 37]", "microsomal CLint", "98 µL/min/mg"],
  ["O=C1C[C@H]2CCCN2C(=O)[C@H](Cc2ccccc2)NC(=O)[C@@H](NC(=O)c2ccc(Cl)s2)CCCSCc2cccc(n2)CSCCN1 [compound 35]", "microsomal CLint", "90.3 µL/min/mg"],
  ["O=C1C[C@H]2CCCN2C(=O)[C@H](Cc2ccccc2)NC(=O)[C@@H](NC(=O)c2ccc(Cl)s2)CCCSC/C=C/CSCCN1 [compound 36]", "microsomal CLint", "61.9 µL/min/mg"],
  ["O=C1C[C@H]2CCCN2C(=O)[C@H](Cc2ccccc2)NC(=O)[C@@H](NC(=O)c2ccc(Cl)s2)CCSC/C=C/CSCCN1 [compound 34]", "microsomal CLint", "85.6 µL/min/mg"],
  ["O=C1C[C@H]2CCCN2C(=O)[C@H](Cc2ccccc2)NC(=O)[C@@H](NC(=O)c2ccc(Cl)s2)CSCc2cccc(n2)CSCCN1 [compound 31]", "microsomal CLint", "48.6 µL/min/mg"],
  ["O=C1C[C@H]2CCCN2C(=O)[C@H](Cc2ccccc2)NC(=O)[C@@H](NC(=O)c2ccc(Cl)s2)CSC/C=C/CSCCN1 [peptide 32]", "microsomal CLint", "276 µL/min/mg"],
  ["O=C1C[C@H]2CCCN2C(=O)[C@H](Cc2ccccc2)NC(=O)[C@@H](NC(=O)c2ccc(Cl)s2)CCSCc2cccc(n2)CSCCN1 [compound 33]", "microsomal CLint", "71 µL/min/mg"]
]}

---

# study-target: human α-thrombin (Homo sapiens, UniProt P00734)
# test: Protease inhibition, Ki for human α-thrombin (fluorogenic substrate Z-Gly-Gly-Arg-AMC)
# Assay type: biochemical
# experimental-setup: human alpha thrombin; average of R1-R3; read-out: Ki Average, human alpha thrombin inhibition

{"columns": ["substance-smiles", "Ki"],
 "data": [
  ["O=C1CSCCC[C@H](NC(=O)c2ccc(Cl)s2)C(=O)N[C@@H](Cc2ccccc2)C(=O)N2CCC[C@@H]2CC(=O)NCCSC1", "0.0206 µM"],
  ["O=C1C[C@H]2CCCN2C(=O)[C@H](Cc2ccccc2)NC(=O)[C@@H](NC(=O)c2ccc(Cl)s2)CCSCc2cccc(n2)CSCCN1", "0.0966 µM"],
  ["O=C1C[C@H]2CCCN2C(=O)[C@H](Cc2ccccc2)NC(=O)[C@@H](NC(=O)c2ccc(Cl)s2)CCSC/C=C/CSCCN1", "0.021 µM"]
]}

---

# test: Metabolic stability in rat liver microsomes (RLMs)
# experimental-setup: rat, microsomes, Metabolic stability: Half life T1/2 (min), RLMs; mean and SD, three measurements
measured-parameter: half-life (min)

{"columns": ["compound", "reported-value"],
 "data": [
  ["O=C1CCSC/C=C/CSCCNC(=O)[C@H](CNC(=O)c2ccc(Cl)s2)NC(=O)[C@H](Cc2ccccn2)N1", 5.4],
  ["O=C1C[C@H]2CCCN2C(=O)[C@H](Cc2ccccc2)NC(=O)[C@@H](NC(=O)c2ccc(Cl)s2)CCCSCc2cccc(n2)CSCCN1", 16.2],
  ["O=C1CC2CCN(CC2)C(=O)[C@@H](NC(=O)c2cc(F)cc(F)c2)CSCc2ccc(cc2)CSCCNC(=O)[C@H](Cc2ccccc2)N1 [peptide 1]", 11.5]
]}

Reference source for all entries: paper PMC11062899
